Reference for the values: paper PMC12797170

# Assay text: in vitro
# Experimental setup: human, plasma
Property: half-life at 10 µM; scope: individual molecules

Examples with their reported half-life at 10 µM follow.
molecule="COc1ccc2cc(-c3nc(Cl)nc4c3ccn4[C@@H]3O[C@H](COP(=O)(O)CP(=O)(O)O)[C@@H](O)[C@H]3O)ccc2c1 [7B.35]" val="> 2 h"
molecule="O=P(O)(O)CP(=O)(O)OC[C@H]1O[C@@H](n2ccc3c(-c4cccc5c4CCCC5)ncnc32)[C@@H](F)[C@@H]1O [34A.12]" val="> 2 h"
molecule="Nc1nc(-c2cccc3ccccc23)c2ccn([C@@H]3O[C@H](COP(=O)(O)CP(=O)(O)O)[C@@H](O)[C@H]3O)c2n1 [11C.6]" val="> 2 h"
molecule="O=P(O)(O)CP(=O)(O)OC[C@H]1O[C@@H](n2ccc3c(-c4cc5ccccc5o4)nc(Cl)nc32)[C@H](O)[C@@H]1O [7B.8]" val="> 2 h"
molecule="C[C@H](Nc1cc(Cl)nc2c1cnn2[C@@H]1O[C@H](COP(=O)(O)CP(=O)(O)O)[C@@H](O)[C@H]1O)c1ccccc1F [AB680, quemliclustat, reference compound]" val="> 2 h"

Query string: Returns the measured half-life at 10 µM for the input molecule. Input: O=P(O)(O)CP(=O)(O)OC[C@H]1O[C@@H](n2ccc3c(-c4cc5ccccc5o4)nc(F)nc32)[C@H](O)[C@@H]1O [14D.8]
Result string: > 2 h

Query string: Could you do the same for O=P(O)(O)CP(=O)(O)OC[C@H]1O[C@@H](n2ccc3c(-c4ccnc5ccccc45)ncnc32)[C@@H](F)[C@@H]1O [34A.28] , please?
Result string: > 2 h

Query string: Could you do the same for O=P(O)(O)CP(=O)(O)OC[C@H]1O[C@@H](n2ccc3c(-c4ccc5c(c4)CCCC5)nc(Cl)nc32)[C@H](O)[C@@H]1O [7B.23] , please?
Result string: > 2 h

Query string: Could you do the same for O=P(O)(O)CP(=O)(O)OC[C@H]1O[C@@H](n2ccc3c(-c4cccc5ccccc45)nc(Cl)nc32)[C@H](O)[C@@H]1O [7B.6] , please?
Result string: > 2 h

Query string: Could you do the same for Cc1nc(-c2cccc3ccccc23)c2ccn([C@@H]3O[C@H](COP(=O)(O)CP(=O)(O)O)[C@@H](O)[C@H]3O)c2n1 [18E.6] , please?
Result string: > 2 h

Query string: Could you do the same for CC1(C)Cc2cc(-c3nc(Cl)nc4c3ccn4[C@@H]3O[C@H](COP(=O)(O)CP(=O)(O)O)[C@@H](O)[C@H]3O)ccc2O1 [7B.30] , please?
Result string: > 2 h

###

Property: microsomal CLint at 10 µM; scope: individual molecules
# Assay text: Microsomal stability assay, mouse liver microsomes
# Type: in vitro ADME
# Experimental setup: pooled liver microsomes, pH 7.4, read-out: Mics (m) CLint

molecule=O=P(O)(O)CP(=O)(O)OC[C@H]1O[C@@H](n2ccc3c(-c4cnc5ccccc5c4)ncnc32)[C@H](O)[C@@H]1O measurement_type="microsomal CLint at 10 µM" val="< 1 µL/min/mg"
molecule=O=P(O)(O)CP(=O)(O)OC[C@H]1O[C@@H](n2ccc3c(-c4ccc5c(c4)CCCC5)nc(Cl)nc32)[C@H](O)[C@@H]1O measurement_type="microsomal CLint at 10 µM" val="< 1 µL/min/mg"

Query string: Returns the measured microsomal CLint at 10 µM for the input molecule. Input: COc1ccc2cc(-c3nc(Cl)nc4c3ccn4[C@@H]3O[C@H](COP(=O)(O)CP(=O)(O)O)[C@@H](O)[C@H]3O)ccc2c1
Result string: < 2 µL/min/mg

Query string: Could you do the same for Cc1nc(-c2cccc3c2CCCC3)c2ccn([C@@H]3O[C@H](COP(=O)(O)CP(=O)(O)O)[C@@H](O)[C@H]3O)c2n1 [18E.12] , please?
Result string: < 1 µL/min/mg

Query string: Could you do the same for COc1nc(-c2ccc3ccccc3c2)c2ccn([C@@H]3O[C@H](COP(=O)(O)CP(=O)(O)O)[C@@H](O)[C@H]3O)c2n1 [21F.7] , please?
Result string: < 1 µL/min/mg

Query string: Could you do the same for O=P(O)(O)CP(=O)(O)OC[C@H]1O[C@@H](n2ccc3c(-c4ccc5cc(O)ccc5c4)nc(Cl)nc32)[C@H](O)[C@@H]1O , please?
Result string: < 2 µL/min/mg

###

# Assay text: Microsomal stability assay, human liver microsomes
# Type: in vitro ADME
# Experimental setup: pooled liver microsomes, pH 7.4, read-out: Mics (hu) CLint
Property: microsomal CLint at 10 µM; scope: individual compounds

Examples with their reported microsomal CLint at 10 µM follow.
compound="COc1ccc2cc(-c3nc(Cl)nc4c3ccn4[C@@H]3O[C@H](COP(=O)(O)CP(=O)(O)O)[C@@H](O)[C@H]3O)ccc2c1 [7B.35]" val="< 2 µL/min/mg"
compound="Cc1nc(-c2cc3ccccc3o2)c2ccn([C@@H]3O[C@H](COP(=O)(O)CP(=O)(O)O)[C@@H](O)[C@H]3O)c2n1 [18E.8]" val="2 µL/min/mg"

Now for the compound whose microsomal CLint at 10 µM we want.
Query string: Returns the measured microsomal CLint at 10 µM for the input compound. Input: O=P(O)(O)CP(=O)(O)OC[C@H]1O[C@@H](n2ccc3c(-c4ccc5cnccc5c4)ncnc32)[C@H](O)[C@@H]1O [4A.21]
Result string: 3 µL/min/mg

###

# Assay text: In vivo pharmacokinetic study, intravenous
# Design: species or system male CD-1 mice
# Experimental setup: mouse, plasma, 1 mg/kg; male CD-1 mice, intravenous, single dose; read-out: Cl (obs), observed clearance
Measurement type: clearance (mL/min/kg)
Give the quantity in mL/min/kg, number only.

Examples with their reported clearance follow.
molecule=O=P(O)(O)CP(=O)(O)OC[C@H]1O[C@@H](n2ccc3c(-c4cc(Br)c5ccccc5c4F)nc(Cl)nc32)[C@H](O)[C@@H]1O val=1.1
molecule="O=P(O)(O)CP(=O)(O)OC[C@H]1O[C@@H](n2ccc3c(-c4ccc5ccccc5c4)ncnc32)[C@@H](F)[C@@H]1O [34A.7]" val=7.2

Now for the molecule whose clearance we want.
Query string: Returns the measured clearance for the input molecule. Input: O=P(O)(O)CP(=O)(O)OC[C@H]1O[C@@H](n2ccc3c(-c4cccc5ccccc45)nc(Cl)nc32)[C@H](O)[C@@H]1O
Result string: 0.73

###

# System: MDA-MB-231 breast cancer cell line
# Assay text: CellTox Green cytotoxicity assay
# Format: cell-based, human
# Experimental setup: 24 h
Measurement type: in vitro cytotoxicity against MDA-MB-231

compound="Cc1nc(-c2cccc3ccccc23)c2ccn([C@@H]3O[C@H](COP(=O)(O)CP(=O)(O)O)[C@@H](O)[C@H]3O)c2n1 [18E.6]" val=nontoxic
compound=O=P(O)(O)CP(=O)(O)OC[C@H]1O[C@@H](n2ccc3c(-c4cccc5ccccc45)nc(Cl)nc32)[C@H](O)[C@@H]1O val=nontoxic
compound=O=P(O)(O)CP(=O)(O)OC[C@H]1O[C@@H](n2ccc3c(-c4cccc5c4CCCC5)nc(Cl)nc32)[C@H](O)[C@@H]1O val=nontoxic

###

# Assay text: Plasma protein binding, mouse plasma
# Format: in vitro ADME
# Experimental setup: mouse, plasma, mouse plasma protein binding; read-out: PPB (m) (converted)
Property: fraction unbound at 4 h, 100 µM; scope: individual compounds
Answer with a bare number; do not write a unit.

Examples with their reported fraction unbound at 4 h, 100 µM follow.
compound=O=P(O)(O)CP(=O)(O)OC[C@H]1O[C@@H](n2ccc3c(-c4ccncc4)ncnc32)[C@H](O)[C@@H]1O measurement_type="fraction unbound at 4 h, 100 µM" val=0.833
compound=O=P(O)(O)CP(=O)(O)OC[C@H]1O[C@@H](n2ccc3c(-c4cc5ccccc5o4)ncnc32)[C@H](O)[C@@H]1O measurement_type="fraction unbound at 4 h, 100 µM" val=0.371
compound="O=P(O)(O)CP(=O)(O)OC[C@H]1O[C@@H](n2cnc3c(-c4ccc5ccccc5c4)ncnc32)[C@H](O)[C@@H]1O [31A.7]" measurement_type="fraction unbound at 4 h, 100 µM" val=0.224
compound=O=P(O)(O)CP(=O)(O)OC[C@H]1O[C@@H](n2ccc3c(-c4cc5ccccc5[nH]4)nc(Cl)nc32)[C@H](O)[C@@H]1O measurement_type="fraction unbound at 4 h, 100 µM" val=0.201
compound=O=P(O)(O)CP(=O)(O)OC[C@H]1O[C@@H](n2ccc3c(-c4cnc5ccccc5c4)ncnc32)[C@H](O)[C@@H]1O measurement_type="fraction unbound at 4 h, 100 µM" val=0.536
compound="O=P(O)(O)CP(=O)(O)OC[C@H]1O[C@@H](n2ccc3c(-c4ccc5ccccc5c4)ncnc32)[C@@H](F)[C@@H]1O [34A.7]" measurement_type="fraction unbound at 4 h, 100 µM" val=0.022
compound="O=P(O)(O)CP(=O)(O)OC[C@H]1O[C@@H](n2ccc3c(-c4ccco4)nc(F)nc32)[C@H](O)[C@@H]1O [14D.1]" measurement_type="fraction unbound at 4 h, 100 µM" val=0.664
compound=N#Cc1ccc(-c2nc(Cl)nc3c2ccn3[C@@H]2O[C@H](COP(=O)(O)CP(=O)(O)O)[C@@H](O)[C@H]2O)c2ccccc12 measurement_type="fraction unbound at 4 h, 100 µM" val=0.339

Query string: Returns the measured fraction unbound at 4 h, 100 µM for the input compound. Input: O=P(O)(O)CP(=O)(O)OC[C@H]1O[C@@H](n2ccc3c(-c4ccc5c(c4)CCCC5)nc(Cl)nc32)[C@H](O)[C@@H]1O
Result string: 0.059

Query string: Could you do the same for Cc1nc(-c2ccc3ccccc3c2)c2ccn([C@@H]3O[C@H](COP(=O)(O)CP(=O)(O)O)[C@@H](O)[C@H]3O)c2n1 [18E.7] , please?
Result string: 0.221

Query string: Could you do the same for O=P(O)(O)CP(=O)(O)OC[C@H]1O[C@@H](n2ccc3c(-c4ccc5cc(O)ccc5c4)nc(Cl)nc32)[C@H](O)[C@@H]1O , please?
Result string: 0.198
